The entries below come with measured protein stability index values attached.
B1: FBF1 (parent)
chain: QLQCSPAELQAELLHSQARLAELE

- Variants of: B1
- method-summary: protein stability index of a GFP-peptide fusion (GPS, HEK-293T) (PSI 1-6); higher = more stable;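 also: lentivirally expressed fusions sorted by FACS into six bins by GFP to DsRed ratio, PSI derived from sequencing read proportions per bin multiplied by bin number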
- experimental-context: c terminus: a fixed tail appended
assay-metric: protein stability index

[[record]]
mutation_spec = "E8R"
assay_metric = "protein stability index"
reported_measurement = 2.33

[[record]]
mutation_spec = "L9K"
assay_metric = "protein stability index"
reported_measurement = 4.57

[[record]]
mutation_spec = "Q3G"
assay_metric = "protein stability index"
reported_measurement = 3.25

[[record]]
mutation_spec = "P6T"
assay_metric = "protein stability index"
reported_measurement = 3.66

[[record]]
mutation_spec = "E24K"
assay_metric = "protein stability index"
reported_measurement = 3.44

[[record]]
mutation_spec = "E22M"
assay_metric = "protein stability index"
reported_measurement = 3.12

[[record]]
mutation_spec = "S5C"
assay_metric = "protein stability index"
reported_measurement = 3.03

[[record]]
mutation_spec = "A21H"
assay_metric = "protein stability index"
reported_measurement = 2.98

[[record]]
mutation_spec = "L13M"
assay_metric = "protein stability index"
reported_measurement = 3.34

[[record]]
mutation_spec = "S16R"
assay_metric = "protein stability index"
reported_measurement = 4.02

[[record]]
mutation_spec = "C4N"
assay_metric = "protein stability index"
reported_measurement = 3.26

[[record]]
mutation_spec = "L13S"
assay_metric = "protein stability index"
reported_measurement = 4.74

[[record]]
mutation_spec = "Q17G"
assay_metric = "protein stability index"
reported_measurement = 3.74

[[record]]
mutation_spec = "L9D"
assay_metric = "protein stability index"
reported_measurement = 5.05

[[record]]
mutation_spec = "L9T"
assay_metric = "protein stability index"
reported_measurement = 4.45

[[record]]
mutation_spec = "S5R"
assay_metric = "protein stability index"
reported_measurement = 2.66

[[record]]
mutation_spec = "L2W"
assay_metric = "protein stability index"
reported_measurement = 2.75

[[record]]
mutation_spec = "L2F"
assay_metric = "protein stability index"
reported_measurement = 2.83

[[record]]
mutation_spec = "P6C"
assay_metric = "protein stability index"
reported_measurement = 2.17

[[record]]
mutation_spec = "R19M"
assay_metric = "protein stability index"
reported_measurement = 1.97

[[record]]
mutation_spec = "A21D"
assay_metric = "protein stability index"
reported_measurement = 2.68

[[record]]
mutation_spec = "S5I"
assay_metric = "protein stability index"
reported_measurement = 3.25

[[record]]
mutation_spec = "A21F"
assay_metric = "protein stability index"
reported_measurement = 2.72

[[record]]
mutation_spec = "A7N"
assay_metric = "protein stability index"
reported_measurement = 3.39

[[record]]
mutation_spec = "Q3E"
assay_metric = "protein stability index"
reported_measurement = 3.54

[[record]]
mutation_spec = "A21T"
assay_metric = "protein stability index"
reported_measurement = 2.86

[[record]]
mutation_spec = "E22V"
assay_metric = "protein stability index"
reported_measurement = 2.54

[[record]]
mutation_spec = "Q1R"
assay_metric = "protein stability index"
reported_measurement = 2.59

[[record]]
mutation_spec = "E8W"
assay_metric = "protein stability index"
reported_measurement = 1.79

[[record]]
mutation_spec = "A21V"
assay_metric = "protein stability index"
reported_measurement = 3.14

[[record]]
mutation_spec = "P6W"
assay_metric = "protein stability index"
reported_measurement = 2.51

[[record]]
mutation_spec = "A7R"
assay_metric = "protein stability index"
reported_measurement = 3.06

[[record]]
mutation_spec = "A21R"
assay_metric = "protein stability index"
reported_measurement = 3.25

[[record]]
mutation_spec = "Q1L"
assay_metric = "protein stability index"
reported_measurement = 2.62

[[record]]
mutation_spec = "L23S"
assay_metric = "protein stability index"
reported_measurement = 4.84

[[record]]
mutation_spec = "Q10Y"
assay_metric = "protein stability index"
reported_measurement = 1.89

[[record]]
mutation_spec = "Q3Y"
assay_metric = "protein stability index"
reported_measurement = 2.12

[[record]]
mutation_spec = "H15W"
assay_metric = "protein stability index"
reported_measurement = 2.65

[[record]]
mutation_spec = "L2E"
assay_metric = "protein stability index"
reported_measurement = 4.46

[[record]]
mutation_spec = "P6S"
assay_metric = "protein stability index"
reported_measurement = 3.26

[[record]]
mutation_spec = "A18E"
assay_metric = "protein stability index"
reported_measurement = 3.95

[[record]]
mutation_spec = "Q1G"
assay_metric = "protein stability index"
reported_measurement = 2.77

[[record]]
mutation_spec = "H15M"
assay_metric = "protein stability index"
reported_measurement = 2.22

[[record]]
mutation_spec = "A18I"
assay_metric = "protein stability index"
reported_measurement = 3.13

[[record]]
mutation_spec = "H15N"
assay_metric = "protein stability index"
reported_measurement = 2.81

[[record]]
mutation_spec = "S16P"
assay_metric = "protein stability index"
reported_measurement = 4.17

[[record]]
mutation_spec = "A11L"
assay_metric = "protein stability index"
reported_measurement = 1.71

[[record]]
mutation_spec = "Q3C"
assay_metric = "protein stability index"
reported_measurement = 2.53

[[record]]
mutation_spec = "S5G"
assay_metric = "protein stability index"
reported_measurement = 2.79

[[record]]
mutation_spec = "E24G"
assay_metric = "protein stability index"
reported_measurement = 3.23

[[record]]
mutation_spec = "E22C"
assay_metric = "protein stability index"
reported_measurement = 2.67

[[record]]
mutation_spec = "Q3V"
assay_metric = "protein stability index"
reported_measurement = 3.1

[[record]]
mutation_spec = "L14A"
assay_metric = "protein stability index"
reported_measurement = 2.89

[[record]]
mutation_spec = "L23H"
assay_metric = "protein stability index"
reported_measurement = 4

[[record]]
mutation_spec = "L20P"
assay_metric = "protein stability index"
reported_measurement = 4.76

[[record]]
mutation_spec = "S5N"
assay_metric = "protein stability index"
reported_measurement = 2.94

[[record]]
mutation_spec = "A21Y"
assay_metric = "protein stability index"
reported_measurement = 2.31

[[record]]
mutation_spec = "E12N"
assay_metric = "protein stability index"
reported_measurement = 3.18

[[record]]
mutation_spec = "A7W"
assay_metric = "protein stability index"
reported_measurement = 2.92

[[record]]
mutation_spec = "C4D"
assay_metric = "protein stability index"
reported_measurement = 4.22

[[record]]
mutation_spec = "A7S"
assay_metric = "protein stability index"
reported_measurement = 3.62

[[record]]
mutation_spec = "E8N"
assay_metric = "protein stability index"
reported_measurement = 2.84

[[record]]
mutation_spec = "S16N"
assay_metric = "protein stability index"
reported_measurement = 4.33

[[record]]
mutation_spec = "R19W"
assay_metric = "protein stability index"
reported_measurement = 2.12

[[record]]
mutation_spec = "L14K"
assay_metric = "protein stability index"
reported_measurement = 3.72

[[record]]
mutation_spec = "A18T"
assay_metric = "protein stability index"
reported_measurement = 3.42

[[record]]
mutation_spec = "E8I"
assay_metric = "protein stability index"
reported_measurement = 2.28

[[record]]
mutation_spec = "L14Q"
assay_metric = "protein stability index"
reported_measurement = 3.59

[[record]]
mutation_spec = "E12Q"
assay_metric = "protein stability index"
reported_measurement = 2.67

